This listing pairs compounds with measured Population Healthy Nuclei (%).
# Test system: U2OS
# assay-comment: Multiplex assay against U2OS
# Format: toxicity, cell-based
# conditions: human, 24 h, 1 µM, compound concentration 1 uM, replicate 1
Numbers only here, please. The scale is %.

*Q* Population Healthy Nuclei (%) for `COC(=N)c1nc2ccc3ncnc(Nc4ccc(OC)cc4F)c3c2s1` ?
*A* 82

*Q* // next record CCCS(=O)(=O)Nc1ccc(F)c(C(=O)c2c[nH]c3ncc(Cl)cc23)c1F [PLX-4720]
*A* 86

*Q* // next record `O=C(Nc1cccnn1)N1CCC(=Cc2cccc(Oc3ccc(C(F)(F)F)cn3)c2)CC1`
*A* 83

*Q* // next record `NC(=O)c1cccc(-c2cc(Nc3ccc(OC(F)(F)F)cc3)ncn2)c1`
*A* 93

*Q* // next record `O=C(Nc1ccc(-c2ccnc(Nc3ccc(N4CCOCC4)cc3)n2)cc1)[C@@H]1CCCN1`
*A* 76

Where do the numbers come from? From ChEMBL document CHEMBL4689842.
